meta.source: patent US12312359B2

# studySystem: biotinylated wild-type menin and MLL-AF9 fusion protein (menin/MLL binding) (Homo sapiens, UniProt O00255)
# Construct: MLL-AF9-FLAG: HEK293 cells, used as cleared lysate
# Sequence (O00255 whole entry, the tested form may be a part): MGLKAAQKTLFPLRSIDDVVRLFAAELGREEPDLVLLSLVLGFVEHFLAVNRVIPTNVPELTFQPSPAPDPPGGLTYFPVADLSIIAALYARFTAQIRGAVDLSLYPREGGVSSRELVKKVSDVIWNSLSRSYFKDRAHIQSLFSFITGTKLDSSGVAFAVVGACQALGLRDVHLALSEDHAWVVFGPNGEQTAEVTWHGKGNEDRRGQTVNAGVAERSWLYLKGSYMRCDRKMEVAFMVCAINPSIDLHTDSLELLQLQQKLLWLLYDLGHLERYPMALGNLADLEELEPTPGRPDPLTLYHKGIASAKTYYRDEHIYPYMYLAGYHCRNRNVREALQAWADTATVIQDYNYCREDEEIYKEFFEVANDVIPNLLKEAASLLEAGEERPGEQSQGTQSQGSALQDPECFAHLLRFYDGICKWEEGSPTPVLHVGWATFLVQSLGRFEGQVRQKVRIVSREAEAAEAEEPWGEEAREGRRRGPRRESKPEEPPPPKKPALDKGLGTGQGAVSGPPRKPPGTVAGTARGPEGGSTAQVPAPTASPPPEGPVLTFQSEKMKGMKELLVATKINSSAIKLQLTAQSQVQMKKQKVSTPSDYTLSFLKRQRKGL
# methodDescription: Assay 1: menin/MLL binding AlphaLISA assay, wild-type menin
# conditions: Table 30; column head does not say wild-type or mutated menin
pIC50: −log10 of the molar value.
Item-by-item account of pIC50

| compound | pIC50 |
| --- | --- |
| CC1CCC(C)N1C(=O)c1cc(F)ccc1Oc1cncnc1N1CCC2(CCN(Cc3ccc4[nH]c(=O)[nH]c4c3)C2)C1 (stereo not shown) [Example 153] | > 7.00 |
| CC(C)N(C(=O)c1cc(F)ccc1Oc1cncnc1N1CC2(CCN(CC3CCC4(CC3)OCCO4)CC2)C1)C(C)C [Example 100] | > 7.00 |
| CC(C)c1nccn1-c1cc(F)ccc1Oc1cncnc1N1CCC2(CCN(Cc3ccc4[nH]c(=O)[nH]c4c3)C2)C1 (stereo not shown) [Example 53] | > 7.00 |

Read the next record carefully.
// returns reported pIC50 for input CC(C)c1ncncc1-c1cc(F)ccc1Oc1cncnc1N1CCC2(CCN(Cc3ccc4[nH]c(=O)[nH]c4c3)C2)C1 (stereo not shown) [Example 160] > 7.00
